From: paper PMC12569736

assay target: human tyrosinase (hTYR) (Homo sapiens)
Construct: tyrosinase enzyme solution derived from MNT‐1 cells; endogenous in cells
Sequence (P14679 19-529): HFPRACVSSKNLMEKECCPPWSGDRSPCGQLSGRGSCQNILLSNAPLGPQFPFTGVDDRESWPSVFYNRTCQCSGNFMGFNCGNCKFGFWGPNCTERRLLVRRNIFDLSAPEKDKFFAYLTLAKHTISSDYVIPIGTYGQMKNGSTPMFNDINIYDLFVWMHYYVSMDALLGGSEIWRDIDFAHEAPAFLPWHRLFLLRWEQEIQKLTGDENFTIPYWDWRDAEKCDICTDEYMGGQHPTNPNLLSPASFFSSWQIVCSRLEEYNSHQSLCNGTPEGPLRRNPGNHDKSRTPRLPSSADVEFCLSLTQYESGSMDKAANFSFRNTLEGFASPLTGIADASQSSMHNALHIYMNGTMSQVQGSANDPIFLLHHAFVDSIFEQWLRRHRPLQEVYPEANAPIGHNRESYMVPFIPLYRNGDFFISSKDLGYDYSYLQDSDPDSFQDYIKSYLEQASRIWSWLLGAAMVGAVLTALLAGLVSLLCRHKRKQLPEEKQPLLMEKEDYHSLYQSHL
experiment summary: L‐DOPA oxidation assay for tyrosinase activity (MNT‐1 cell lysate)
measurement context: MNT‐1 lysate, L‐DOPA 4 mM, pH 6.9; read-out: IC50 against hTYR
Procedure: The hTYR‐mediated L‐DOPA oxidation assay was performed according to Winder and Harris. MNT‐1 cells were resuspended in 0.05 M sodium phosphate buffer (pH 6.9) and sonicated for 1 min. […] For the assay, 20 μL of crude enzyme solution and 80 μL sodium phosphate buffer were added to a 96‐well plate and centrifuged at 1000 rpm for 30 s. […] The microplate reader (Synergy H1 Hybrid Reader, BioTek) was used to monitor the reaction at 26°C, measuring absorbance at 475 nm every minute for 60 min. […]
quantity name: pIC50
Just the number, please; pIC50 means minus log10 of the concentration in mol/L.

| compound | recorded value |
| --- | --- |
| Oc1ccc(/C=C/c2cc(O)cc(O)c2)cc1 [resveratrol] | 5.22 |
| CC(c1ccccc1)c1ccc(O)cc1O (centres unmarked) [compound 377, phenethyl resorcinol] | 4.67 |
| CC1(C(=O)Nc2nc(-c3ccc(O)cc3O)cs2)COC1 [KT‐939] | 7.15 |
| CCCCc1ccc(O)cc1O [4‐butylresorcinol] | 5.15 |

Task: Given the entry CC(C)C(=O)Nc1nc(-c2ccc(O)cc2O)cs1 [Thiamidol, isobutylamido thiazolyl resorcinol] , report its measured pIC50.
Result: 6.48
